target-system: Solute carrier family 22 member 11 (Homo sapiens)
Sequence (Q9NSA0 whole entry): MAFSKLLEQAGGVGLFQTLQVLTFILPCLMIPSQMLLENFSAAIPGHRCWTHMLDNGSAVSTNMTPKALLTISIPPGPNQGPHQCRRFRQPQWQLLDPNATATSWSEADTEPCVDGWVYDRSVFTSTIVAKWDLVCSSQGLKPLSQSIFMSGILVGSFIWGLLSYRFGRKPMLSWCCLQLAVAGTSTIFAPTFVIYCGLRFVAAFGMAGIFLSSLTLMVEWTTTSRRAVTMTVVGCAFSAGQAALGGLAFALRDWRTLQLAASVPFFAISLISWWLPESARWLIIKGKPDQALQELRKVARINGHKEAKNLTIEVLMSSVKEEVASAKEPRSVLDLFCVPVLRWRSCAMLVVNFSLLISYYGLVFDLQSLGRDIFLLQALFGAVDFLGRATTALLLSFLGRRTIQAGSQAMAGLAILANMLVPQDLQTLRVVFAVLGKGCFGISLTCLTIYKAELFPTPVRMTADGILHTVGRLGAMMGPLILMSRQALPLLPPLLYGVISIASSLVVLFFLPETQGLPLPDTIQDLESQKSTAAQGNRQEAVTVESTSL
experimental-details: TP_TRANSPORTER: inhibition of Ochratoxin A uptake in OAT4-expressing S2 cells
measurement-kind: Ki

CCCCCCCC(=O)O ... 236 µM
CN1C(C(=O)Nc2ccccn2)=C(O)c2ccccc2S1(=O)=O ... 108 µM

Quick one: Ki for `CC1=C2C(=CO[C@H](C)[C@H]2C)C(O)=C(C(=O)O)C1=O` ? 366 µM
